Recorded EC50 by entry
target: T1, human CD3 expressed on cells (Jurkat cells; human T-cells of PBMC) (human, UniProt P09693 23-182; P20963 22-164)
T1 construct: whole, on cells; Native CD3 on the cell surface; also called hPBMC
T1 sequence (chain, as listed by the source, chain 1 of 4): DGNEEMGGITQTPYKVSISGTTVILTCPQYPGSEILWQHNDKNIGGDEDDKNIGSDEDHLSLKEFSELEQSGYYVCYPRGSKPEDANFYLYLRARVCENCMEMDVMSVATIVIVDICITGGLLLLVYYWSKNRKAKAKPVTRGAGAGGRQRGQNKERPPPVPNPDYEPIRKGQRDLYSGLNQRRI
T1 sequence (chain, as listed by the source, chain 2 of 4): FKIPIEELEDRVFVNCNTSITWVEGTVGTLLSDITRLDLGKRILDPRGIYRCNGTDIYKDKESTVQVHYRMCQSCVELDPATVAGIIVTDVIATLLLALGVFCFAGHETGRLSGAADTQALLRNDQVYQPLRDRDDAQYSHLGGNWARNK
T1 sequence (P09693 23-182, chain 3 of 4): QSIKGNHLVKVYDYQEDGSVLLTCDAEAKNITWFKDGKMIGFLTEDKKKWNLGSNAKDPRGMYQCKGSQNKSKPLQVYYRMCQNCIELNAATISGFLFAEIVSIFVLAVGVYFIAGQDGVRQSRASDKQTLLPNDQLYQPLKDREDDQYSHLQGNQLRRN
T1 sequence (P20963 22-164, chain 4 of 4): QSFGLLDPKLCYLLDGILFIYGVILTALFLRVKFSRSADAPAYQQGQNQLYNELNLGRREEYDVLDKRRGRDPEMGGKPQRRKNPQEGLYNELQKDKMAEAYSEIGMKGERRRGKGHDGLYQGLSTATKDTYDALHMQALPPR
measurement_protocol: FACS titration on Jurkat cells (CD3+ human T-cell line)
Only the number, expressed in nM, is required.

As a guide, the following entries are already answered.
binder	units_text	EC50
H1H5763P (antibody, human IgG1, V domains shown, H1H: human IgG1 Fc) VH: QVQLVESGGGVVQPGRSLRLSCAASGLTFSSYGMHWVRQAPGKGLEWVAVISYDGSNKYYTDSVKGRFTISRDNSKNTLYLQMNSLRAEDTAVYYCAKGAMVRGVPYNYYYGMDVWGQGTTVTVSS VL: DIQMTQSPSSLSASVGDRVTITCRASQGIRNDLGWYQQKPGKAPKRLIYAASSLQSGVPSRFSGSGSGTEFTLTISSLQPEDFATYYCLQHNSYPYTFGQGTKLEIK	nM	2.76
H1H5752P (antibody, human IgG1, V domains shown, H1H: human IgG1 Fc) VH: QVQLVESGGGVVQPGRSLRPSCAASGFSFRDYGMHWVRQAPGKGLEWMAHIWYNGKNKYYADSVKGRFTISRDNSKNTLYLQMNSLRPEDTAVYYCARDGVSARGTPFDYWGQGTLVTVSS VL: ETTLTQSPAFMSAAPGDKVSISCIASQYIDDDVNWYQQKPGETAIFIIQEASTLVPGISPRFSGSGYGTHFTLTINNIDSEDAAFYFCLQHDNFPYTFGQGTKLEIK	nM	0.343
H1H5780P (antibody, human IgG1, V domains shown, H1H: human IgG1 Fc) VH: EVQLVESGGGLVQPGRSLRLSCAASGFTFDDYAMHWVRQAPGKGLEWVSGISWNGGSKDYADSVKGRFTISRDNTRNSLSLQMNSLRIEDTALYYCAKDKSGYGSFYYGLDVWGQGTTVTVSS VL: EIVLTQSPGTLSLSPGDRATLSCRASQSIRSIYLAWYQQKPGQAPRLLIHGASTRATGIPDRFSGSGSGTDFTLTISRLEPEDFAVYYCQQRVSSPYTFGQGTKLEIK	nM	0.762

**Q:** Given the entry H1H5786B (antibody, human IgG1, V domains shown, H1H: human IgG1 Fc) VH: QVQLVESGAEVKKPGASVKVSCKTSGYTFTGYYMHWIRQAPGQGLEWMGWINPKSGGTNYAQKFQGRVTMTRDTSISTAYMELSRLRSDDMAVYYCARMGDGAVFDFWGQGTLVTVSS VL: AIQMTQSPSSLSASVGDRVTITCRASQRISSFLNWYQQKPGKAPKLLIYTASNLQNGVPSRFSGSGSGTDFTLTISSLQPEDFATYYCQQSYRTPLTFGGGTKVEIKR , report its measured EC50.
**A:** 1.1

**Q:** Given the entry H1H5793B (antibody, human IgG1, V domains shown, H1H: human IgG1 Fc) VH: QVQLVQSGTEVKKPGASMKVSCKASGYTFTGYYIHWVRQAPGQGLEWMGWINPNSDVTKYAQKFQGRVTLTRDTSISAAYIDLSRLRSDDTAIYYCARMGDGAVFDYWGQGTLVTVSS VL: DIQLTQSPSSLSASVGDRVTITCRASQRISSYLNWYQQKPGKAPKVLISVASSLQSGVPSRFSGSGFGTDFTLTISSLQPEDSASYYCQQSYNTPLTFGGGTKLEIKR , report its measured EC50.
**A:** 4.62
